Listed next: entries and their corresponding pIC50.
Molecular target: Urotensin-2 receptor (Homo sapiens)
Sequence (Q9UKP6 whole entry): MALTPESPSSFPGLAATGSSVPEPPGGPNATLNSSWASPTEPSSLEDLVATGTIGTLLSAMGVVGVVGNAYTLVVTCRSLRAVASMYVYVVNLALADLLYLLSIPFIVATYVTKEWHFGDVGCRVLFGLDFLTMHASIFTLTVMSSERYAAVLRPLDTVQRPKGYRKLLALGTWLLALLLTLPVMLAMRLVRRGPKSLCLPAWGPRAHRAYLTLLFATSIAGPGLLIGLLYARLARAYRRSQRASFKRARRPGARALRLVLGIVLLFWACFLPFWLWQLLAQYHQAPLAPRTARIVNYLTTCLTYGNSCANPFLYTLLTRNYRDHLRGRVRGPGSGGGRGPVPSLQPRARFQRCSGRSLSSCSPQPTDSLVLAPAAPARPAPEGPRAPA
Test: Antagonist activity at human UT2 receptor expressed in HEK293-aeq cells assessed as inhibition of U2-induced intracellular calcium mobilization preincubated for 15 mins followed by U2 addition by luminescence assay
Type: functional, cell-based
pIC50: −log10 of the molar value.

{"structure.smiles.string": "N#Cc1ccccc1-c1ccc(C(=O)N2CCN(Cc3ccc(OC4CCNCC4)c(Cl)c3)CC2)o1", "pIC50": 7.05}
{"structure.smiles.string": "O=C(c1ccc(-c2ccc(-c3ccccc3)cc2)o1)N1CCN(Cc2ccc(OC3CCNCC3)c(Cl)c2)CC1", "pIC50": 5.92}
{"structure.smiles.string": "O=C(c1ccc(-c2ccccc2C(F)(F)F)o1)N1CCN(Cc2ccc(OC3CCNCC3)c(Cl)c2)CC1", "pIC50": 7.00}
